Assignment: determine reported interaction score for the given binders.
Target: T1, 4H797-bN
T1 chain: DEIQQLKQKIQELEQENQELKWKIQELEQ
Test: two-hybrid library CCNG1;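 also: natural log of median RNA to DNA barcode read ratio; higher means stronger binding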

Known results for binders:
BINDER | interaction score
DEIQQLEQENQELEQKIQELKWEIQELKQ [4H170-bN] | -0.668
DKIQQLKQENQELEQEIQELKWKIQELKQ [4H2702-bN] | 0.189
DKNQQLKQKNQELKQKIQELKWEIQELEQ [4H4073-bN] | -0.921
DEIQQLEQEIQELKQKNQELEWKIQELKQ [4H118-bN] | -0.885
DKNQQLKQKIQELKQENQELEWKIQELKQ [4H3926-bN] | -0.358
DEIQQLEQEIQELKQEIQELEWKNQELKQ [4H72-bN] | 0.632

Let's switch to this binder now.
Given the binder DEIQQLKQENQELKQEIQELKWKIQELEQ [4H717-bN] , write its reported interaction score. -1.95

Where these numbers come from: paper PMC10397247
